biological target: MMP-3CD (catalytic domain of stromelysin-1) (Homo sapiens, UniProt P08254); assay: Thiopeptolide hydrolysis assay, MMP-3CD; format: biochemical; details: Table 2; thiopeptolide substrate, MES buffer pH 6.0; read-out: IC50 (μM) Versus Certain MMPs: MMP03 (CD)
Sequence (P08254 100-272 limits assumed): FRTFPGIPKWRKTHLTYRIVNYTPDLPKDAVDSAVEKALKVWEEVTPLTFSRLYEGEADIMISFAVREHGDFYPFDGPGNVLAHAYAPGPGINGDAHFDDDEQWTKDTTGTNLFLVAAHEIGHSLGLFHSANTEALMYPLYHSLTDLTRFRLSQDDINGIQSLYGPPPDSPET
Answer each item with its documented IC50.

Sample records with IC50:
COC(=O)c1ccc(CN2C(=O)N(C)c3ccc(C(=O)NCc4ccc(F)cc4)cc3S2(=O)=O)cc1 > 30 µM
COc1ccc(CNC(=O)c2ccc3c(c2)S(=O)(=O)N(Cc2ccc(CC(=O)O)cc2)C(=O)N3C)cc1 > 30 µM

With those in mind, consider the next molecule.
Under MMP-3CD (catalytic domain of stromelysin-1) (Homo sapiens, UniProt P08254): IC50 value of COc1cccc(CNC(=O)c2ccc3c(c2)S(=O)(=O)N(Cc2ccccc2)C(=O)N3C)c1 ?
> 100 µM
